Test system: MDA-MB-231
Assay Procedure: Growth inhibition of human MDA-MB-231 cells assessed as 1-relative growth at 10 uM after 3 days by DNA dye binding assay
Assay type: functional
Non-standard residues stand in square brackets, D forms with d. Residues, ends and D or L forms follow the SMILES beside them. Sar = CNCC(=O)O
Assay Metric: Activity

Solved entries:
CCOC(=O)C[C@@H](CC(=O)NCCN[C@H](C)c1ccc(O)c(C(=O)OC)c1)OC(C)=O: 0.096
CNCC(=O)N[C@@H](CCCNC(=N)N)C(=O)N[C@H](C(=O)N[C@@H](Cc1ccc(O)cc1)C(=O)N[C@H](C(=O)N[C@@H](Cc1cnc[nH]1)C(=O)O)C(C)C)C(C)C (H-[Sar]RVYVH-OH): 0.158
CCCCCCCCCCCCCCNC(=O)[C@@H](N)CCN: 0.69
OC(COc1ccc(OCC(O)CN2CCN(C3c4ccccc4-c4ccccc43)CC2)cc1)CN1CCN(C2c3ccccc3-c3ccccc32)CC1 (stereo not given): 0.88
CCCCCCCCCCCCCCCC(=O)N[C@@H](CCCCN)C(=O)N[C@@H](CCCCN)C(=O)OC: -0.089

Let me know recorded Activity for "CCC(C)(C)c1ccc(OCCCCNC(=O)c2cc(Oc3ccc([N+](=O)[O-])cc3)c3ccccc3c2O)c(C(C)(C)CC)c1" , thanks.
0.398

Give the value of Activity reported for the following: "CCOC(=O)C(NC(=O)CN[C@H]1CCCc2sccc21)C(=O)OCC"
0.531

Note Activity for the compound shown: "CC(C)(NC(=O)CN1C(=O)c2ccccc2C1=O)C(=O)NCCCC[C@H](NC(=O)CC(O)(C(F)(F)F)C(F)(F)F)C(=O)O"
0.608

Please report the measured Activity for "CCCOc1ccc(C(=O)OCCN(CC)CC)cc1NS(=O)(=O)/C=C/c1ccccc1"
0.043

Give recorded Activity. CC(NCCCCCO)c1cc(OCc2ccccc2)cc(OCc2ccccc2)c1 (stereo not given)
0.036
